- ASSAY_SUMMARY: Selectivity index, ratio of CC50 for cytotoxicity against human THP-1 cells assessed as reduction in cell viability to IC50 for antileishmanial activity against […] stage of Leishmania braziliensis MHOM/BR/75/M2904 infected in human THP-1 cells assessed as parasite growth inhibition
- Type: toxicity, cell-based
- SETTINGS: read-out: Ratio CC50/IC50
ASSAY_READOUT: selectivity ratio
Write the value as a bare number.

Known selectivity ratio results, listed for orientation:
MOLECULAR_STRING	ASSAY_RESULT
O=C(c1ccc(NC2CCCC2)nc1)N1CCN(c2cnccn2)CC1	2
O=C(c1cccc(C(F)(F)F)n1)N1CCN(c2cnccn2)CC1	0.5

Req: Any idea what its selectivity ratio is? The compound is COc1cccc(C(=O)N2CCN(c3cnccn3)CC2)c1OC
Resp: 24

Req: Any idea what its selectivity ratio is? The compound is N#Cc1ccc(C(=O)N2CCN(c3cnccn3)CC2)cc1
Resp: 57

Req: Any idea what its selectivity ratio is? The compound is O=S(=O)(c1ccc(O)cc1)N1CCN(c2cnccn2)CC1
Resp: 22

Req: Any idea what its selectivity ratio is? The compound is C[C@@H]1[C@H](O)[C@@H](C)/C=C/C=C/C=C/C=C/C=C/C=C/C=C/[C@H](O[C@@H]2O[C@H](C)[C@@H](O)[C@H](N)[C@@H]2O)C[C@@H]2O[C@](O)(C[C@@H](O)C[C@@H](O)[C@H](O)CC[C@@H](O)C[C@@H](O)CC(=O)O[C@H]1C)C[C@H](O)[C@H]2C(=O)O
Resp: 2800

Req: Any idea what its selectivity ratio is? The compound is COc1ccc(C(=O)N2CCN(c3cnccn3)CC2)cn1
Resp: 82

Req: Any idea what its selectivity ratio is? The compound is O=C(c1cc(Cl)ccc1O)N1CCN(c2cnccn2)CC1
Resp: 357

====

- ASSAY_SUMMARY: Selectivity index, ratio of CC50 for cytotoxicity against human THP-1 cells assessed as reduction in cell viability to IC50 for antileishmanial activity against […] stage of Leishmania infantum MHOM/BR/1974/PP75 infected in human THP-1 cells assessed as parasite growth inhibition
- Assay type: toxicity, cell-based
- SETTINGS: read-out: Ratio CC50/IC50
Hi! Just check whether selectivity ratio is below 50. Below gives 1.0, equal or above gives 0.0.

Observe how each entry below is paired with its result.
MOLECULE	ASSIGNED_LABEL
COc1ccc(C(=O)N2CCN(c3cnccn3)CC2)cc1OC	1.0
COc1ccc(C(=O)N2CCN(c3cnccn3)CC2)cn1	0.0
O=C(c1ccccc1O)N1CCN(c2cnccn2)CC1	1.0
O=C(c1ccc(O)nc1)N1CCN(c2cnccn2)CC1	0.0
C[C@@H]1[C@H](O)[C@@H](C)/C=C/C=C/C=C/C=C/C=C/C=C/C=C/[C@H](O[C@@H]2O[C@H](C)[C@@H](O)[C@H](N)[C@@H]2O)C[C@@H]2O[C@](O)(C[C@@H](O)C[C@@H](O)[C@H](O)CC[C@@H](O)C[C@@H](O)CC(=O)O[C@H]1C)C[C@H](O)[C@H]2C(=O)O [AMPHOTERICIN B]	0.0

Req: Decide: selectivity ratio of COc1cc(F)ccc1C(=O)N1CCN(c2cnccn2)CC1 strictly below 50?
Resp: 1.0

Req: Decide: selectivity ratio of O=C(c1ccc(-n2cnnn2)cc1)N1CCN(c2cnccn2)CC1 strictly below 50?
Resp: 0.0

Req: Decide: selectivity ratio of O=C(c1cccc(Cl)c1)N1CCN(c2cnccn2)CC1 strictly below 50?
Resp: 1.0

Req: Decide: selectivity ratio of Oc1ccc(N2CCN(c3cnccn3)CC2)cc1 strictly below 50?
Resp: 0.0

Req: Decide: selectivity ratio of O=C(c1ccccn1)N1CCN(c2cnccn2)CC1 strictly below 50?
Resp: 1.0

Req: Decide: selectivity ratio of O=C(c1ccc2cc(O)ccc2c1)N1CCN(c2cnccn2)CC1 strictly below 50?
Resp: 0.0

Req: Decide: selectivity ratio of O=C(c1cccc(C(F)(F)F)n1)N1CCN(c2cnccn2)CC1 strictly below 50?
Resp: 1.0

Req: Decide: selectivity ratio of N#Cc1ccc(C(=O)N2CCN(c3cnccn3)CC2)cc1 strictly below 50?
Resp: 0.0

Req: Decide: selectivity ratio of COc1cccc(C(=O)N2CCN(c3cnccn3)CC2)c1OC strictly below 50?
Resp: 1.0

Req: Decide: selectivity ratio of O=C(c1ccc(O)c(O)c1)N1CCN(c2cnccn2)CC1 strictly below 50?
Resp: 0.0

Req: Decide: selectivity ratio of O=C(c1cccc(O)c1)N1CCN(c2cnccn2)CC1 strictly below 50?
Resp: 0.0

Req: Decide: selectivity ratio of O=C(c1ccc(C(F)(F)F)cc1)N1CCN(c2cnccn2)CC1 strictly below 50?
Resp: 1.0

Req: Decide: selectivity ratio of CC(C)(C)OC(=O)N[C@@H](Cc1ccc(O)cc1)C(=O)N1CCN(c2cnccn2)CC1 strictly below 50?
Resp: 0.0

Req: Decide: selectivity ratio of O=C(c1ccc(OC(F)(F)F)cc1)N1CCN(c2cnccn2)CC1 strictly below 50?
Resp: 0.0

Req: Decide: selectivity ratio of O=C(c1ccc(O)c(Cl)c1)N1CCN(c2cnccn2)CC1 strictly below 50?
Resp: 1.0

Req: Decide: selectivity ratio of O=C(c1ccc(C(F)(F)F)nc1)N1CCN(c2cnccn2)CC1 strictly below 50?
Resp: 0.0

Req: Decide: selectivity ratio of COc1ccc(C(=O)N2CCN(c3cnccn3)CC2)c(OC)c1 strictly below 50?
Resp: 1.0

Req: Decide: selectivity ratio of O=C(c1ccc(Cl)nc1)N1CCN(c2cnccn2)CC1 strictly below 50?
Resp: 0.0

Req: Decide: selectivity ratio of O=C(c1cc(Cl)ccc1O)N1CCN(c2cnccn2)CC1 strictly below 50?
Resp: 0.0

Req: Decide: selectivity ratio of O=S(=O)(c1ccc(O)cc1)N1CCN(c2cnccn2)CC1 strictly below 50?
Resp: 1.0

Req: Decide: selectivity ratio of O=C(c1ccc(F)cc1O)N1CCN(c2cnccn2)CC1 strictly below 50?
Resp: 0.0

Req: Decide: selectivity ratio of COc1ccc(C(=O)N2CCN(c3cnccn3)CC2)cc1 strictly below 50?
Resp: 0.0

Req: Decide: selectivity ratio of O=C(c1ccc(O)cc1)N1CCN(c2cnccn2)CC1 strictly below 50?
Resp: 0.0

Req: Decide: selectivity ratio of Nc1ccc(C(=O)N2CCN(c3cnccn3)CC2)cn1 strictly below 50?
Resp: 0.0
